- target_system: UniProtKB P05067
- Sequence (P05067 whole entry): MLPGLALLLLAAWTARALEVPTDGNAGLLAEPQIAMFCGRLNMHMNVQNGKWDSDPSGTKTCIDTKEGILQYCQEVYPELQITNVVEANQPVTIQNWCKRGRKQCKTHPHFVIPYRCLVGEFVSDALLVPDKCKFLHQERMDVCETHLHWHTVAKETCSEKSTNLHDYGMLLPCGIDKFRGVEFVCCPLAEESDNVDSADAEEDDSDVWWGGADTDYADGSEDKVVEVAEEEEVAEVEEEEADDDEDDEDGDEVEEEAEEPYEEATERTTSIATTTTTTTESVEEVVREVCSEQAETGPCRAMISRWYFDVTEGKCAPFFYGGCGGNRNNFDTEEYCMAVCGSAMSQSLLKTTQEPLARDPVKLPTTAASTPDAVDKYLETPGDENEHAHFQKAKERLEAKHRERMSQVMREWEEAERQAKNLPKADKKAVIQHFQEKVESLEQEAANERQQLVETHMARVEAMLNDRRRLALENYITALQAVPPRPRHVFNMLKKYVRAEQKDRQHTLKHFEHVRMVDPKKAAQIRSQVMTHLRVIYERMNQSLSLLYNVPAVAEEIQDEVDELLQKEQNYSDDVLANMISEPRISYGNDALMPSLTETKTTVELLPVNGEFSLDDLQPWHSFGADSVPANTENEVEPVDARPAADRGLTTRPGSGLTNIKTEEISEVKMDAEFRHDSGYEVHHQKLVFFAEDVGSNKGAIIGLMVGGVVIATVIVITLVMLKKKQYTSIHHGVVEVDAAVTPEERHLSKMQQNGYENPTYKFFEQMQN
- assay: Displacement of [125I]2-(4'-dimethylaminophenyl)-6-iodoimidazo[1,2-a]pyridine from beta amyloid peptide in brain tissue at 50 uL
- Type: tissue-based
pKi: −log10 of the molar value.
measured_property: pKi

Sample answers from the record:
Nc1ccc(/C=C/C=C/C=C/c2ccc(NCCF)cc2)cc1 7.92
CNc1ccc(/C=C/C=C/C=C/c2ccc(NC)cc2)cc1 8.12
CN(C)c1ccc(/C=C/C=C/C=C/c2ccc(N(C)C)cc2)cc1 6.08
Nc1ccc(/C=C/C=C/C=C/c2ccc(N)cc2)cc1 8.05
O=[N+]([O-])c1ccc(/C=C/C=C/C=C/c2ccc([N+](=O)[O-])cc2)cc1 6.30

a = Oc1ccc(/C=C/C=C/C=C/c2ccc(O)cc2)cc1
b = CC(=C(C#N)C#N)c1ccc2cc(N(C)CCF)ccc2c1
// task: argmin of pKi over [ a , b ] Write the label of whichever entry you select.
b
